The next entries give measured IC50 for Acetylcholinesterase (Electrophorus electricus, UniProt O42275).

[[record]]
query_smiles = "CCC(=O)Oc1cccc([N+](C)(C)C)c1C"
observed_measurement = "754 µM"


[ask] Param item = COc1cc([N+](C)(C)C)ccc1C ; retrieve measured IC50.
[reply] 122 µM

[ask] Cool, now CCC(=O)Oc1cc([N+](C)(C)C)ccc1C
[reply] 3.77 µM

[ask] Cool, now C[N+](C)(C)c1cccc(O)c1
[reply] 0.973 µM

[ask] Cool, now COc1ccc(C)c([N+](C)(C)C)c1
[reply] 345 µM

[ask] Cool, now CC(=O)Oc1cccc([N+](C)(C)C)c1C
[reply] 40.8 µM

* * *

target: Acetylcholinesterase (Torpedo californica, UniProt P04058)
Sequence (P04058 whole entry): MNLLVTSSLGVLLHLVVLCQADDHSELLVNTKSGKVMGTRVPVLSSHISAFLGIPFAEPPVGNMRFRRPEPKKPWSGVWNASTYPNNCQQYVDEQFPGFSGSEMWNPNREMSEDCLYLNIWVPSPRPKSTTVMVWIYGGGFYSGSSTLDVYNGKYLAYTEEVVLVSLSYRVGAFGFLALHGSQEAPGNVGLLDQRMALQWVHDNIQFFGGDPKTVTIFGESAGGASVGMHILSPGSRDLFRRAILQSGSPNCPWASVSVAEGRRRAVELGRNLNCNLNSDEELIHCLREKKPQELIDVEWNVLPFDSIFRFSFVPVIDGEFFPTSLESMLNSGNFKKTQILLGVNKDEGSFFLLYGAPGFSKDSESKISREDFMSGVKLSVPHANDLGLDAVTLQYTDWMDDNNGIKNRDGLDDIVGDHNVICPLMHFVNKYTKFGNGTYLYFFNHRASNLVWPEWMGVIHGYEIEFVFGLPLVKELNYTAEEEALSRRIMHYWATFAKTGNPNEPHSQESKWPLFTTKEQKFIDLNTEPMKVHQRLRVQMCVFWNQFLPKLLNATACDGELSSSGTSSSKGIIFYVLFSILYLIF
measured-property: pIC50
Conceptually, pIC50 converts a concentration in mol/L into minus its log10.

[ask] Param item = C[N+](C)(C)c1cccc([N+](=O)[O-])c1 ; retrieve measured pIC50.
[reply] 3.20

* * *

// reported pIC50 per item
target: Acetylcholinesterase (Homo sapiens)
Sequence (P22303 whole entry): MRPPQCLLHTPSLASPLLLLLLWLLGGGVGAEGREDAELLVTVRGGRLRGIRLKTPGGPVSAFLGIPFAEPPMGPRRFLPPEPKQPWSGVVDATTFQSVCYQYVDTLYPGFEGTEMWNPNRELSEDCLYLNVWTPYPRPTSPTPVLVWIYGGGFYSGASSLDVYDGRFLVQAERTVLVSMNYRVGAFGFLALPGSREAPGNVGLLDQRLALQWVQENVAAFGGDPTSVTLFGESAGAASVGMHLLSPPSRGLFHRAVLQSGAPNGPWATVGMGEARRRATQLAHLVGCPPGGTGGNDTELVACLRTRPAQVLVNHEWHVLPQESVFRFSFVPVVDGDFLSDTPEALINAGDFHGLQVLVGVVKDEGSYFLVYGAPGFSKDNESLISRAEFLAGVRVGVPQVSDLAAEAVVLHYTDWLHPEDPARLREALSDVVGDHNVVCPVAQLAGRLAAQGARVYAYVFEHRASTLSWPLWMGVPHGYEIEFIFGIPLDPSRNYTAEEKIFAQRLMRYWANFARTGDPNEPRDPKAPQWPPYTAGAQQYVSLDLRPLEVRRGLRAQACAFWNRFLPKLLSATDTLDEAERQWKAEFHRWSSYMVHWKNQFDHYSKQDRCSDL
Conceptually, pIC50 converts a concentration in mol/L into minus its log10.

Here are 3 compounds together with their reported answers.
[[record]]
compound = "CNC(=O)Oc1ccc2c(c1)[C@]1(C)CC[N+](C)(C)C1N2C (some centres undefined)"
observed_measurement = 7.47

[[record]]
compound = "CN1CC[C@@]2(C)c3cc(OC(=O)NCc4ccccc4)ccc3N(C)C12 (some centres undefined)"
observed_measurement = 6.34

[[record]]
compound = "CN(C(=O)NCc1ccccc1)C(=O)Oc1ccc2c(c1)[C@]1(C)CCN(C)C1N2C (some centres undefined)"
observed_measurement = 5.20


[ask] Param item = CCCCNC(=O)Oc1ccc2c(c1)[C@]1(C)CCN(C)C1N2C (some centres undefined) ; retrieve measured pIC50.
[reply] 6.82

[ask] Cool, now CN1CC[C@@]2(C)c3cc(OC(=O)Nc4ccccc4)ccc3N(C)C12 (some centres undefined)
[reply] 6.46

[ask] Cool, now CN1CC[C@@]2(C)c3cc(OC(=O)Nc4ccc(Cl)cc4)ccc3N(C)C12 (some centres undefined)
[reply] 5.74

[ask] Cool, now CC(C)NC(=O)Oc1ccc2c(c1)[C@]1(C)CCN(C)C1N2C (some centres undefined)
[reply] 4.46

[ask] Cool, now CCN(CC)C(=O)Oc1ccc2c(c1)[C@]1(C)CCN(C)C1N2C (some centres undefined)
[reply] 4.40

[ask] Cool, now CN(C)C(=O)Oc1ccc2c(c1)[C@]1(C)CCN(C)C1N2C (some centres undefined)
[reply] 6.01

* * *

molecular target: UniProt:P04058; parameters: species or system Tetronarce californica
Description: Inhibitory activity against Acetylcholinesterase
Labels assigned by IC50 range: A = under 600 µM, B = from 600 µM up to 2000 µM, C = 2000 µM and over

[ask] For the record C[N+]1(C)CCO[C@@](O)(c2ccc(N)cc2)C1 , report the class its IC50 corresponds to.
[reply] B

[ask] Cool, now CC(C)(C)[C@@]1(O)C[N+](C)(C)CCO1
[reply] C

[ask] Cool, now C[N+](C)(C)c1cccc(N)c1
[reply] A

* * *

molecular target: Acetylcholinesterase (Electrophorus electricus, UniProt O42275)
Sequence (O42275 whole entry): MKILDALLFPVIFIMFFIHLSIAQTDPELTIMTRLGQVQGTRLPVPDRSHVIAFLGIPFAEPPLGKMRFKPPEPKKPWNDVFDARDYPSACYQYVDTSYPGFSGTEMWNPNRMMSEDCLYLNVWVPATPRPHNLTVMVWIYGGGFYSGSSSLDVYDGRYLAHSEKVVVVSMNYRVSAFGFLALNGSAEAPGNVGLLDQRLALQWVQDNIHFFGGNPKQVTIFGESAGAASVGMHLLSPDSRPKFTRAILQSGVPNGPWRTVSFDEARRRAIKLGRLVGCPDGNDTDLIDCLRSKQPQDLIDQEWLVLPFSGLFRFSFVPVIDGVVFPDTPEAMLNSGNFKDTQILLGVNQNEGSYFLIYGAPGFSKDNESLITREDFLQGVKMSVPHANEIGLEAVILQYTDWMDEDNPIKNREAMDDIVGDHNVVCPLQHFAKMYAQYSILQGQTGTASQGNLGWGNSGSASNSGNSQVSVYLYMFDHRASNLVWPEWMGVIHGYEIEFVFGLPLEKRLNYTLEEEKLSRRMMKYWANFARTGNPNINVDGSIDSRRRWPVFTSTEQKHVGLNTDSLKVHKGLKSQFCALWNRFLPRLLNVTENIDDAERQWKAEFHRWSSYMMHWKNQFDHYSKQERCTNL
pIC50: −log10 of the molar value.
# label = Satisfied if pIC50 >= 4 else Not satisfied

Past entries and their recorded results:
[[record]]
query_smiles = "COc1cccc([N+](C)(C)C)c1C"
category_label = "Not satisfied"

[[record]]
query_smiles = "COc1cccc([N+](C)(C)C)c1"
category_label = "Not satisfied"


[ask] Check this compound for pIC50 at or above 4: Cc1ccc(O)cc1[N+](C)(C)C
[reply] Satisfied

[ask] Cool, now CCC(=O)Oc1ccc(C)c([N+](C)(C)C)c1
[reply] Satisfied

[ask] Cool, now CCC(=O)Oc1cccc([N+](C)(C)C)c1
[reply] Satisfied

[ask] Cool, now CC(=O)Oc1ccc(C)c([N+](C)(C)C)c1
[reply] Satisfied

Origin of measurements: ChEMBL document CHEMBL1129057
